- Protocol text: TOX21_p53_BLA_p2_viability: Viability Assessment in the Tox21 HCT-116 p53 Agonism Beta-lactamase Assay, Phase 2 (AID 2283591);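 further: compound exposure lasted 16 h at 37 °C; actives lower the ATP signal meaning cytotoxicity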
Records with an inconclusive call do not appear. The source made the active and inactive calls. How the source made its calls: active means hit-call score of the fitted dose curve at least 0.9, where 1 is the maximum; inconclusive means response in the unintended direction; inactive means score below 0.9.
Your response should consist of one outcome taken from Yes = active, No = inactive

Example entries and their recorded answers appear below.
C=CC1=C(C(=O)O)N2C(=O)[C@@H](NC(=O)/C(=N\O)c3csc(N)n3)[C@H]2SC1 (stereo in doubt) : No
C=CCN1CCCC1CNC(=O)c1cc(S(N)(=O)=O)cc(OC)c1OC (configuration not stated) : No

What is the recorded call for this molecule in the test? CCCCCCCCCCCCOC(=O)c1ccc(O)cc1
No
